molecular target: recombinant human Myt1 (full length PKMYT1) (Homo sapiens (Human), UniProt Q99640); experiment: Recombinant human Myt1 kinase assay (ADP-Glo); conditions: 10 μM ATP
Sequence (Q99640 whole entry): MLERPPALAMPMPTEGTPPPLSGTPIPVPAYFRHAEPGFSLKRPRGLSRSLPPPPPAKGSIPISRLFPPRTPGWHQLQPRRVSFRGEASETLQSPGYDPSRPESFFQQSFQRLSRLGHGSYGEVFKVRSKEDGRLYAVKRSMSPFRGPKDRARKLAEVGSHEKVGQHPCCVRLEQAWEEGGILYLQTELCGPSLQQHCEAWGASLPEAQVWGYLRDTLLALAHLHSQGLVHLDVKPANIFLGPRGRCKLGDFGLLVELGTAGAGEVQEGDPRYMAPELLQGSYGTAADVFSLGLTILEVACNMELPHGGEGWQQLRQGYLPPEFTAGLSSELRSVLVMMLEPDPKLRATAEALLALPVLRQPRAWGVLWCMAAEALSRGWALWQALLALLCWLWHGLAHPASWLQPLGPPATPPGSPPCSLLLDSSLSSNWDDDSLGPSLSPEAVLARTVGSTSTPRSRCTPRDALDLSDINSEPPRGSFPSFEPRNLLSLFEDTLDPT
What IC50 was measured for each of the following?
Numbers only, in nM.

>>> result("Cc1ccc2[nH]ncc2c1-c1nc(-c2cc(F)c(F)cc2NCC(F)F)nc(C(N)=O)c1N")
6
>>> result("Cc1ccc2[nH]ncc2c1-c1cc(-c2ccnc(OC3CNC3)n2)nc(C(N)=O)c1N")
10

Moving on to the next molecule.
-- ask Field: IC50 (recombinant human Myt1 (full length PKMYT1) (Homo sapiens (Human), UniProt Q99640)). Entry: Cc1ccc(O)c(C)c1-c1cc(-c2ccccn2)cc(C(N)=O)c1N
-- reply 8
